B1: ATGL (PNPLA2, patatin-like phospholipase domain-containing protein 2), human, full length / perilipin-5, mouse (mPlin5) (parent)
chain 1: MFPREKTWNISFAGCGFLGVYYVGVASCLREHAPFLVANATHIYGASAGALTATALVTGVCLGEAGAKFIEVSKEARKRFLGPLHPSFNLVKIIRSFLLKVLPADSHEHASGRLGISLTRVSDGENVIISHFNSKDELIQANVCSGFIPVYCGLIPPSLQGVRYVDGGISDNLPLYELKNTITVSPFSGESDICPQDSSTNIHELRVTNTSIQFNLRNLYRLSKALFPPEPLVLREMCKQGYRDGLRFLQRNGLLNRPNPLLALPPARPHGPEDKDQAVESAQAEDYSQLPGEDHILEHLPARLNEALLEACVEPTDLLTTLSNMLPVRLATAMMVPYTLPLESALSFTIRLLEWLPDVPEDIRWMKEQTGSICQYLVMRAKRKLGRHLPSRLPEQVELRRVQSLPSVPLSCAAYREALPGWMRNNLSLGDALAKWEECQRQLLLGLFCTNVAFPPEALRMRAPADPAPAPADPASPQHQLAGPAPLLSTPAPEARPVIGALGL
chain 2: MDQRGEDTTLAPHSRMSGDQTAQDPGSSLGELDQQNVVNRVVALPLVKATCTAVSSAYNSAKDRHPLLGSACRLAEHCVCSVTTCALDHAQPLLEHLQPQLATVNDLACRGLDKLEEKLPFLQQPSDMVVTSAKDTVAKSVTGMVDLAQRGRRWSGELRRSMSQAMDMVLGKSEKLVDRFLPMTEAELAVLAAEAEGPEVGTVEEQRQQQGYFVRLGSLSARLRHLAYEHSLGKLRQSKHRTQEMLAQLQETLELIQHMQRGASPSPTFHPPKTQELWGSWSPCLENGRSHSEVELETLALSRSLTLELQNAVDALAGCVRGLPPSAQAKVAEVQRSVDALQATFADAHCLGDVAPTALAEGRGSVARAHACVDEFLDLVLRAMPLPWLVGPFAPILVEQSEPLINLATCVDEVVGDPDPRWAHMDWPAQKRAWEAESADPGGQEAEPPRGQGKHTMMPELDF

Variants of: B1
Assay: LUMIER: Protein A-ATGL variant and firefly luciferase-partner co-expressed in HEK293T, lysates immunoprecipitated on IgG-coated plates, co-precipitated partner measured as luciferase luminescence
Details: with perilipin-5, mouse (mPlin5), transient co-transfection, IgG-coated LUMITRAC plates, 2 h at 4 °C, three PBS washes, Bright-Glo luciferase reagent, triplicates per assay, two …, parent: 0.15, not graded, scale: log2 fold change of co-immunoprecipitated luminescence relative to wild-type ATGL within each experiment
Label rule, in plain words: screen value of -0.6 and up is Condition met, under -0.6 is Condition not met.

chain 1 V328A    Condition not met
chain 1 K92L    Condition met
chain 1 P258L    Condition not met
chain 1 E125L    Condition met

Does screen value meet or surpass -0.6 for chain 1 R351L ?
Condition met

screen value >= -0.6 for chain 1 R95K ?
Condition met

Threshold query (screen value >= -0.6) on chain 1 G153A
Condition not met

Is it the case that chain 1 N39E has screen value reaching or exceeding -0.6?
Condition met

Has chain 1 L102K a recorded screen value greater than or equal to -0.6?
Condition met

Identify whether the reported screen value of the following variant is -0.6 or greater: chain 1 Q140K
Condition met
